Test system: MS2 coat protein
Test: apparent Kd, MS2 coat protein; higher = weaker binding; RNA-MaP array; theophylline 2 mM where present
Conditions: designed as: OFF switch for theophylline; no ligand
Here, each record is paired with measured apparent Kd data.
Expressed in nM, but write only the number.

See these solved cases before continuing.
sequence.content	value.unit	apparent Kd
CGGUACAUGAGGAUCACCCAUGUGUCGGAUACCAGAGAGCCGUCUCUCCCUUGGCAGCUGGUUUUACAUGAGGAUCACCCAUGUG	nM	13.6
AGAUUAAAGAGUGAUACCAGACUACAUGAGGAUCACCCAUGUUACAUUUGAGUAGCUUUAGUCCCUUGGCAGCACUUUAUGUACA	nM	45.5
GAGCUGAUGUAGAGAAUAAAUAUAAGAGAUACCAGUACAGAAAUGUACCCUUGGCAGCUCAACUUUACAUGAGGAUCACCCAUGU	nM	13.9
AGCGACAUGCGUGAUACCAGCUACAUGAGGAUCACCCAUGUACGUAGGAAACUACUGUGUAGCCCUUGGCAGCAUAGUGCAUGUC	nM	12.6
AUUAUCAUGGUCAUAUAUAUAUCGUCAGAUACCAGACUAGAUAUAGUCCCUUGGCAGCUGUUACAUGAGGAUCACCCAUGUUAUA	nM	138
GAUGAACUAUUUGAUACCAGACAACAUGAGGAUCACCCAUGUGCGCGUCGUCCUCUGCCUGUCCCUUGGCAGCGGAUAGUUUAUC	nM	59.5

# return recorded apparent Kd for entry GCAUGUGGAGUCUUACUAGAGAGGACAGAUACCAGUAAGAUGUGAUACCCUUGGCAGCUGCGAUUUACAUGAGGAUCACCCAUGU
21.5

====

System: MS2 coat protein
Assay: apparent Kd, MS2 coat protein; higher = weaker binding; RNA-MaP array; FMN 200 µM where present
Conditions: designed as: OFF switch for flavin mononucleotide; no ligand
Lab note: anything with apparent Kd at or over 20 nM counts as t; the rest go in f.

sequence.content	assigned.label
CUGUAUCGGUCAGGAUAUGUGCGUAAACUGUGAACAGAAGGGACCGUACAUGAGGAUCACCCAUGUCCGGGACUCCUUAUGCCU	f
GCUGCAUAGGCAGGAUAUGCAACAAUUCGAAUAAAAUAUAACGAAUUGACAUGAGGAUCACCCAUGUAGAAGGGCCUGUGCAGU	f
GCUGACGAUGUAGGAUAUCAGUAUAAUAAAUACUGAGAAGGACAUGAGGAUCACCCAUGUCUCCAACGUCAGCAGAGGAAACUC	f
CCUGUUUGAUUCCUCUUAUACAUGAGGAUCACCCAUGUUAUCGAGGAUAUGCAUUAGAGUGUUUAGCAGAAGGCGAUGUAAUUG	f
UGAUAGCACAGAGGAUAUGCGUAGAGUUAUCACUACAUGAGGAUCACCCAUGUAGAAGGCUGUGCUAUCUAAGUCGGAAACGAC	f
UACGGACAUGAGGAUCACCCAUGUGAGGAUAUCGGUACCGAUAGCAUAAUAUACUCGGCGAGAAGGCACAGCGU	t
CGAGUCGGUUGCCCUGCAGUACAUGAGGAUCACCCAUGUCGGAGAAGGUGCACAAAGGAAUCGGGCAAGGAUAUCCGGCGUGAA	f
UAAUAAAGUGUGAGGAUAUGCUGGUCCUUGGAUCAGCAGAAGGCACAUGAGGAUCACCCAUGUAAUAUAUAAAU	t

Evaluate CAGAUAAAAGUGUGGUCCUCGACAUGAGGAUCACCCAUGUACGAGGAUAUGUAAUAUACGGUAUAGCAGAAGGCGUAUGGGUGU : apparent Kd at minimum 20 nM?
t

Record CUUUUGUGAGGAUAUCAGUAGUAAUAUAAUAGUAUUACUACUGAGAAGGCACAUGAGGAUCACCCAUGUUCCUC ; criterion: apparent Kd no lower than 20 nM. Met?
t

Does apparent Kd meet or surpass 20 nM for UUUUUUGUUGUGAGGAUAUCGUAUUUUUUUUGUUACGAGAAGGCACAUGAGGAUCACCCAUGUUUUUUGAUGUU ?
t

Threshold query (apparent Kd >= 20 nM) on GUAGAGUCAGGAUAUACAGAAAGUGGCUGGAAAACAGUGGCACAUGAGGAUCACCCAUGUAGAAGGGACUCUAC
t

Identify whether the reported apparent Kd of the following sequence is 20 nM or greater: GAUAGGACAGAGAAGGACGUAGCUAGAGAUACUAGCAUAAAGUCUUCAACAUGAGGAUCACCCAUGUAGGAUAUCUGUCCUAUC
f

Determine whether measured apparent Kd meets or exceeds 20 nM for GUGGCUAGUGCAGGAUAUUAGCGCGUGUAGUGUUGAGAAGGGCACAUGAGGAUCACCCAUGUGAUCAAUCACUGUUAAGGUCGC
f

hey, is apparent Kd for this one >= 20 nM? AAAAAACAUGAGGAUCACCCAUGUAAGGAUAUGCAAAAAAAAAAAAAAAAAAAAAAAAGCAGAAGGUACAAAAA
t

Reported apparent Kd reaches at least 20 nM for AAACAUGUCCGAGGAUAUCUGGAAACAUUUCCAAGAGAAGGCGGACAUGAGGAUCACCCAUGUCUCUCCUCAUCACAUCCAAGU ?
f

Dear colleague, could you confirm whether CCGUGGCAAGGAUAUACAUAGGAGAGGAAGGCAAGAGGUGGACAUGAGGAUCACCCAUGUAGAAGGUGCAGAUC has apparent Kd at or above 20 nM?
t
